Quick list: CC50 at 72 h per entry.
- TEST DESCRIPTION: Cytotoxicity in THLE-2 cells (ATP)
- Type: cell-based
- CONDITION LABEL: human; THLE-2, 72 h exposure; read-out: LC50
# value in µM; strip the unit string

COc1cc2c(NC3CCN(C)CC3)cc(-c3ccc(C)o3)nc2cc1OCCCN1CCCC1 = 1.78

Ask: May I ask what CC50 at 72 h has been recorded for `COc1cc2c(NCC3CCN(C)CC3)cc(-c3ccc(C)o3)nc2cc1OCCCN1CCCC1` ?
Result: 1.3

---

- TEST DESCRIPTION: in vivo
- Parameters: species or system mice
- CONDITION LABEL: mouse, iv, 1 mg/kg
ASSAY READOUT: AUC(0-t) (µM·h)
# value in µM·h; strip the unit string

Ask: May I ask what AUC(0-t) has been recorded for COc1cc2c(NCC3CCN(C)CC3)cc(-c3ccc(C)o3)nc2cc1OCCCN1CCCC1 [CM-579] ?
Result: 0.268

---

Quick list: fraction unbound per entry.
- TEST DESCRIPTION: Plasma protein binding (equilibrium dialysis)
- Format: in vitro ADME
- CONDITION LABEL: human, pH 7.4
Answer as a number with no unit attached.

COc1cc2c(NCC3CCN(C)CC3)cc(-c3ccc(C)o3)nc2cc1OCCCN1CCCC1 = 0.147

Ask: May I ask what fraction unbound has been recorded for `COc1cc2c(NC3CCN(C)CC3)cc(-c3ccc(C)o3)nc2cc1OCCCN1CCCC1` ?
Result: 0.244

---

- ASSAY TARGET: BRD4(BD1+BD2) (Homo sapiens)
- Construct: BRD2(BD1+BD2), BRD4(BD1+BD2), BRDT(BD1)
- TEST DESCRIPTION: Epigenetics selectivity panel (BPS Bioscience)
- CONDITION LABEL: BPS
ASSAY READOUT: IC50 (µM)
# value in µM; strip the unit string

Ask: May I ask what IC50 has been recorded for `COc1cc2c(NC3CCN(C)CC3)cc(-c3ccc(C)o3)nc2cc1OCCCN1CCCC1` ?
Result: 1.5

---

- TEST DESCRIPTION: in vitro
- Type: cell-based
- CONDITION LABEL: human
ASSAY READOUT: CC50 at 72 h (µM)
# value in µM; strip the unit string

COc1cc2c(NCC3CCN(C)CC3)cc(-c3ccc(C)o3)nc2cc1OCCCN1CCCC1 [CM-579] = 7.39

Ask: May I ask what CC50 at 72 h has been recorded for COc1cc2c(NC3CCN(C)CC3)cc(-c3ccc(C)o3)nc2cc1OCCCN1CCCC1 [CM-272] ?
Result: 1.9

---

Quick list: half-life at 1 µM per entry.
- TEST DESCRIPTION: Liver microsomal stability
- Format: in vitro ADME
- CONDITION LABEL: mouse, mouse liver microsomes; read-out: Liver Microsomal Stability. Estimation T1/2
# value in min; strip the unit string

COc1cc2c(NC3CCN(C)CC3)cc(-c3ccc(C)o3)nc2cc1OCCCN1CCCC1 = 35.2

Ask: May I ask what half-life at 1 µM has been recorded for `COc1cc2c(NCC3CCN(C)CC3)cc(-c3ccc(C)o3)nc2cc1OCCCN1CCCC1` ?
Result: 10.7
